Origin of the recorded values: patent US20250195521A1

- studyTarget: NRAS Q61K (Homo sapiens (Human), UniProt P01111+P62937, Q61K)
- Sequence (P01111 whole entry Q61K): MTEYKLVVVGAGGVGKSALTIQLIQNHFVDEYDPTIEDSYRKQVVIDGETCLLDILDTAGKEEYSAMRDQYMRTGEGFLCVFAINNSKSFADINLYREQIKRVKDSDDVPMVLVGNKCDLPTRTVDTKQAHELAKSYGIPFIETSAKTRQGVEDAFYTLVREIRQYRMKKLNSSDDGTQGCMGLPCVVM
- Sequence (P62937 whole entry): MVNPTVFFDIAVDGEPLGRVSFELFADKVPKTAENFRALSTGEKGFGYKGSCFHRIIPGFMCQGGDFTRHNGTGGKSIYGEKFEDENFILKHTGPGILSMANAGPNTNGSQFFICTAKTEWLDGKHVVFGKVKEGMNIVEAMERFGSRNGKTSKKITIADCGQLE
- assayName: Ras-Raf disruption/FRET/MOA assay (BRAF RBD, Cyclophilin A)
- Format: biochemical
quantityName: IC50

{"columns": ["compound", "recordedMeasurement"],
 "data": [
  ["CCn1c(-c2cccnc2[C@H](C)OC)c2c3cc(ccc31)-c1csc(n1)C[C@H](NC(=O)[C@H](C(C)C)N(C)C(=O)N1CC[C@]3(CCNC3=O)C1)C(=O)N1CCC[C@H](N1)C(=O)OCC(C)(C)C2 [Compound A479]", "100 to 1000 nM"],
  ["CCn1c(-c2cccnc2[C@H](C)OC)c2c3cc(ccc31)-c1csc(n1)C[C@H](NC(=O)[C@H](C(C)C)N(C)C(=O)N1CCOCC13COC3)C(=O)N1CCC[C@H](N1)C(=O)OCC(C)(C)C2 [Compound A474]", "100 to 1000 nM"]
]}

stdin: IC50 lookup needed for CCn1c(-c2cccnc2[C@H](C)OC)c2c3cc(ccc31)-c1csc(n1)C[C@H](NC(=O)[C@H](C(C)C)N(CCc1ccncc1)C1CC1)C(=O)N1CCC[C@H](N1)C(=O)OCC(C)(C)C2 [Compound A556] , thanks.
stdout: 100 to 1000 nM

stdin: IC50 lookup needed for CCn1c(-c2cccnc2[C@H](C)OC)c2c3cc(ccc31)-c1csc(n1)C[C@H](NC(=O)[C@H](C(C)C)N(C)C(=O)N1CC[C@@H](F)[C@H](N)C1)C(=O)N1CCC[C@H](N1)C(=O)OCC(C)(C)C2 [Compound A559] , thanks.
stdout: 100 to 1000 nM

stdin: IC50 lookup needed for CCn1c(-c2cccnc2[C@H](C)OC)c2c3cc(ccc31)-c1csc(n1)C[C@H](NC(=O)[C@H](C(C)C)N(C)C(=O)N1C[C@@H]3[C@@H](C1)OCCN3C)C(=O)N1CCC[C@H](N1)C(=O)OCC(C)(C)C2 [Compound A472] , thanks.
stdout: 100 to 1000 nM

stdin: IC50 lookup needed for CCn1c(-c2cccnc2[C@H](C)OC)c2c3cc(ccc31)-c1csc(n1)C[C@H](NC(=O)[C@H](C(C)C)N1CCC3(CN(S(C)(=O)=O)C3)C1=O)C(=O)N1CCC[C@H](N1)C(=O)OCC(C)(C)C2 [Compound A234] , thanks.
stdout: 1000 to 10000 nM

stdin: IC50 lookup needed for CCn1c(-c2cccnc2[C@H](C)OC)c2c3cc(ccc31)-c1csc(n1)C[C@H](NC(=O)N1CC[C@@H]1COC)C(=O)N1CCC[C@H](N1)C(=O)OCC(C)(C)C2 [Compound A264] , thanks.
stdout: 100 to 1000 nM

stdin: IC50 lookup needed for CCn1c(-c2cccnc2[C@H](C)OC)c2c3cc(ccc31)-c1csc(n1)C[C@H](NC(=O)[C@H](C(C)C)N(C)C(=O)N1CC[C@H]1CN)C(=O)N1CCC[C@H](N1)C(=O)OCC(C)(C)C2 [Compound A463] , thanks.
stdout: 1000 to 10000 nM

stdin: IC50 lookup needed for CCn1c(-c2cccnc2[C@H](C)OC)c2c3cc(ccc31)-c1csc(n1)C[C@H](NC(=O)[C@H](C(C)C)N1CCC3(COC3)C1)C(=O)N1CCC[C@H](N1)C(=O)OCC(C)(C)C2 [Compound A561] , thanks.
stdout: 10 to 100 nM
